Test system: HT-29
Experiment: cells
Conditions: Homo sapiens, HT-29, 48 h, read-out: Cell growth (%) HT-29
observed.property: activity at 10 µM (%)
Report only the number, with the unit % understood.

O=C(Nc1ccc([Se][Se]c2ccc(NC(=O)c3ccc([N+](=O)[O-])cc3)cc2)cc1)c1ccc([N+](=O)[O-])cc1 [I.1e]    49.2

Param readout = activity at 10 µM; param system = HT-29; param query = COc1ccc(C(=O)Nc2ccc([Se]C#N)cc2)cc1 [I.2c] ; response: value 93.3

Param readout = activity at 10 µM; param system = HT-29; param query = N#C[Se]c1ccc(NC(=O)c2ccno2)cc1 [I.2j] ; response: value 90.8

Param readout = activity at 10 µM; param system = HT-29; param query = COP(=O)(Nc1ccc([Se][Se]c2ccc(NP(=O)(OC)OC)cc2)cc1)OC [II.1b] ; response: value 70.7

Param readout = activity at 10 µM; param system = HT-29; param query = COP(=O)(Nc1ccc([Se]C#N)cc1)OC [II.2b] ; response: value -69.4
